Data origin, for the record: patent US8084457B2

Target: CDK9/Cyclin T1 (Homo sapiens, UniProt P50750)
Sequence (P50750 whole entry): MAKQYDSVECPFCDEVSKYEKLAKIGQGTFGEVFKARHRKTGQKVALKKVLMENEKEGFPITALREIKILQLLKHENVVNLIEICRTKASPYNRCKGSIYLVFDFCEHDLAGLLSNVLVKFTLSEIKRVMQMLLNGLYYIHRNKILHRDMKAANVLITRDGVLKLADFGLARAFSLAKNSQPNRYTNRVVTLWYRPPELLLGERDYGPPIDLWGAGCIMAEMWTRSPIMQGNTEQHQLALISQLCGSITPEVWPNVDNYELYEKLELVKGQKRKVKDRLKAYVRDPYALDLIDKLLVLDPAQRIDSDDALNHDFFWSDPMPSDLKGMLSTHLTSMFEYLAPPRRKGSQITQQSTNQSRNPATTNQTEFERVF
Sequence (O60563 whole entry partner): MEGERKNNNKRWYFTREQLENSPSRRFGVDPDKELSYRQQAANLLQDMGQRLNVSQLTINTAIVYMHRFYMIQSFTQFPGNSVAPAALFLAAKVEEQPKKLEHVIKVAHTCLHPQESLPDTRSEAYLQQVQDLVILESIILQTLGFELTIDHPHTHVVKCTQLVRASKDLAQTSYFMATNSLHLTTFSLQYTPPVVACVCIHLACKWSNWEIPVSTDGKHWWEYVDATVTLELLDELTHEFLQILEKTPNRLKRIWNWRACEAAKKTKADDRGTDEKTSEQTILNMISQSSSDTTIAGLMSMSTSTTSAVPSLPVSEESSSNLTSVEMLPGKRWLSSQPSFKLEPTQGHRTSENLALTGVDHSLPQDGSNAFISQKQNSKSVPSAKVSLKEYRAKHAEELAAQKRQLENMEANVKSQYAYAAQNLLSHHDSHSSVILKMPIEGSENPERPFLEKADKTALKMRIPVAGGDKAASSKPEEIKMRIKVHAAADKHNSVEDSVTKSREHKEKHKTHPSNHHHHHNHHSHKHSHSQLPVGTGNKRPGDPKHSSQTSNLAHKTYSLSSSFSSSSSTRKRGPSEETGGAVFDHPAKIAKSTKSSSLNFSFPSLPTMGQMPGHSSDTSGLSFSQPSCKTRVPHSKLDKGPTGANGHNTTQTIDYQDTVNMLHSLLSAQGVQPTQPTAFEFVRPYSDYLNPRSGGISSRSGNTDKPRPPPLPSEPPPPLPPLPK
Assay: Kinase assay using CDK9/Cyclin T1
Settings: read-out: CDK9 (activity range)
Measure: IC50

// solved cases for IC50 follow
c1ccc(COc2ccccc2-c2cc(NCCc3ccncc3)ncn2)cc1: 1 to 1000 nM
COc1ccccc1-c1cc(Nc2ccc(NC(=O)CC3CCCCN3)cc2)ncn1 (stereo not drawn): 1 to 1000 nM
CC(C)Oc1ccccc1-c1cc(Nc2ccc(NC(=O)[C@@H]3CCCCN3)cc2)ncn1: 1 to 1000 nM

CDK9/Cyclin T1 (Homo sapiens, UniProt P50750) / IC50 / `COc1ccccc1-c1cc(Nc2ccc(NC(=O)C3(N)CCCC3)cc2)ncn1` : value?
1 to 1000 nM

CDK9/Cyclin T1 (Homo sapiens, UniProt P50750) / IC50 / `COc1ccccc1-c1ncnc(Nc2ccc(NC(=O)c3ccc(N)cc3)cc2)c1C` : value?
10000 to 250000 nM

CDK9/Cyclin T1 (Homo sapiens, UniProt P50750) / IC50 / `Cc1ccc(Nc2cc(-c3ccccc3O)ncn2)cc1NS(C)(=O)=O` : value?
1 to 1000 nM

CDK9/Cyclin T1 (Homo sapiens, UniProt P50750) / IC50 / `COc1ccccc1-c1cc(Nc2ccc(NC(=O)C(C)(C)C)cc2)ncn1` : value?
1 to 1000 nM

CDK9/Cyclin T1 (Homo sapiens, UniProt P50750) / IC50 / `COCc1cccc(-c2cc(Nc3ccc(NC(=O)[C@@H]4CCCCN4)cc3)ncn2)c1` : value?
1000 to 10000 nM

CDK9/Cyclin T1 (Homo sapiens, UniProt P50750) / IC50 / `COc1ccccc1-c1cc(Nc2ccc(NC(=O)c3ccccc3N)cc2)ncn1` : value?
1 to 1000 nM
